- assayedSystem: Melanocortin receptor (M1 and M4) (Homo sapiens) (UniProt P32245+Q01726)
- measurementProtocol: Ratio of EC50 of Melanocortin 4 receptor to that of Melanocortin 1 receptor
- Format: protein assay
measuredParameter: Ratio

N=C(N)NCCC[C@H](NC(=O)C(Cc1ccccc1)NC(=O)[C@H](Cc1ccc(Cl)cc1)NC(=O)C1CC1)C(=O)N[C@@H](Cc1c[nH]c2ccccc12)C(N)=O (stereo in doubt)    14

1 = N=C(N)NCCC[C@H](NC(=O)C(Cc1ccccc1)NC(=O)[C@H](Cc1ccc(Cl)cc1)NC(=O)Cc1ccccc1)C(=O)N[C@@H](Cc1c[nH]c2ccccc12)C(N)=O (stereo in doubt)
2 = CC(=O)N[C@@H](Cc1ccc(Cl)cc1)C(=O)NC(Cc1ccccc1)C(=O)N[C@@H](CCCN=C(N)N)C(=O)N[C@@H](Cc1c[nH]c2ccccc12)C(N)=O (stereo in doubt)
3 = N=C(N)NCCC[C@H](NC(=O)C(Cc1ccccc1)NC(=O)[C@H](Cc1ccc(Cl)cc1)NC(=O)CCc1ccccc1)C(=O)N[C@@H](Cc1c[nH]c2ccccc12)C(N)=O (stereo in doubt)
4 = CNC(=O)N[C@@H](Cc1ccc(Cl)cc1)C(=O)NC(Cc1ccccc1)C(=O)N[C@@H](CCCN=C(N)N)C(=O)N[C@@H](Cc1c[nH]c2ccccc12)C(N)=O (stereo in doubt)
Ask: Output the entries ranked by Ratio from maximum down to minimum. The reply should contain the labels ordered as requested.
Reply: 4, 1, 2, 3
